Assay: Pharmacokinetics of cabozantinib in plasma of freely moving rats with or without liver radiotherapy
Conditions: Sprague-Dawley, rat, plasma, po, 6 mg/kg, Tmax, rat plasma; 6 mg/kg p.o. q.d. 3 days; RT 9Gy x 3 f'x sequential
MEASURE_NAME: Tmax (h)
Return type: number; implicit unit h.

Which Tmax is listed for COc1cc2nccc(Oc3ccc(NC(=O)C4(C(=O)Nc5ccc(F)cc5)CC4)cc3)c2cc1OC [cabozantinib] ?
2.92

---

Assay: Pharmacokinetics of cabozantinib in plasma of freely moving rats with or without liver radiotherapy
Settings: Sprague-Dawley, rat, plasma, po, 6 mg/kg, AUC0-T, rat plasma; 6 mg/kg p.o. q.d. 3 days; RT 9Gy x 3 f'x concurrent
MEASURE_NAME: AUC(0-t) (µg·h/mL)
The reply should be a number in µg·h/mL, with the unit left off.

Param item = COc1cc2nccc(Oc3ccc(NC(=O)C4(C(=O)Nc5ccc(F)cc5)CC4)cc3)c2cc1OC [cabozantinib] ; retrieve measured AUC(0-t).
4.29
